src = patent US20230408517A1

- SYSTEM UNDER TEST: recombinant his-tagged homotrimeric SARS-CoV-2 spike protein (SARS-CoV-2, UniProt P0DTC2 16-1211)
- PROTOCOL: flow cytometry, blocking of binding to hACE-2 cells
MEASURED ENDPOINT: percent blocking
Just so you know, I need the unit written after the number.

input: Reported percent blocking for 1035716 (antibody, V domains shown) VH: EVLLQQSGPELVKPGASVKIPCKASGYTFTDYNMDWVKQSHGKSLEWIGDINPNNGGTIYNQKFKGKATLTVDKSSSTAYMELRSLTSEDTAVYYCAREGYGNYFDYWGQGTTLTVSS VL: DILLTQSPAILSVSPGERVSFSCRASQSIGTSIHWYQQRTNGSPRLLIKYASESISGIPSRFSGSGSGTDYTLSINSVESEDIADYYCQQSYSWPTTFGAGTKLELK : what is it?
output: 96.5%

input: Reported percent blocking for 1035753 (antibody, V domains shown) VH: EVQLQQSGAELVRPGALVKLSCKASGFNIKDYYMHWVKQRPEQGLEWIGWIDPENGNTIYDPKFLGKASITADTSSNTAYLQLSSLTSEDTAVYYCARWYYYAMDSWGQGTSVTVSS VL: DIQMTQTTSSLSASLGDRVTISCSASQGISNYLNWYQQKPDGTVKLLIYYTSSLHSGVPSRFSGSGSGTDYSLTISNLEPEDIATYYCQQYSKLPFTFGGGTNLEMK : what is it?
output: 96.6%

input: Reported percent blocking for 1035433 (antibody, V domains shown) VH: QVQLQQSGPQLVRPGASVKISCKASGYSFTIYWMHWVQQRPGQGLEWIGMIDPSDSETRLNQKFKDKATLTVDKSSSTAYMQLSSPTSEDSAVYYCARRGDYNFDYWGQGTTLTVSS VL: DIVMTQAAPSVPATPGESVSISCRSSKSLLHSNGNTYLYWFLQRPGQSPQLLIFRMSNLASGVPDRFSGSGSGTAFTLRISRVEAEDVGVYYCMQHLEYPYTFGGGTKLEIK : what is it?
output: 82.5%

input: Reported percent blocking for 1035423 (antibody, V domains shown) VH: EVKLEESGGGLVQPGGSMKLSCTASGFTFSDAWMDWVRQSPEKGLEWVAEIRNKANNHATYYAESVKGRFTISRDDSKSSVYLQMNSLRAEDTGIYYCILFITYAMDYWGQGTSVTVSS VL: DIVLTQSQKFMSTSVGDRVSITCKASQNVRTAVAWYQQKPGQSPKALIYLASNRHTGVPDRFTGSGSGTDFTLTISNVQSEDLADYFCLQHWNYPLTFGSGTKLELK : what is it?
output: 91.6%

input: Reported percent blocking for 1035709 (antibody, V domains shown) VH: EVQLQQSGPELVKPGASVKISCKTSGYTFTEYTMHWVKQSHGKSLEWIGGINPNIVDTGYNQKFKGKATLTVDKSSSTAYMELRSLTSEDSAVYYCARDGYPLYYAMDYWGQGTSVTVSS VL: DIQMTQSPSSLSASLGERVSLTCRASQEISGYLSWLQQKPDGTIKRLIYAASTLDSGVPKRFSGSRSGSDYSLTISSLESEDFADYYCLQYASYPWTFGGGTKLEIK : what is it?
output: 96.5%

input: Reported percent blocking for 1035414 (antibody, V domains shown) VH: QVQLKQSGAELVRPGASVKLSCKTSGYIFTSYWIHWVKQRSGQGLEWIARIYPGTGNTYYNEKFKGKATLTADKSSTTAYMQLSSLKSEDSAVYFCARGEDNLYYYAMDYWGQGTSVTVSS VL: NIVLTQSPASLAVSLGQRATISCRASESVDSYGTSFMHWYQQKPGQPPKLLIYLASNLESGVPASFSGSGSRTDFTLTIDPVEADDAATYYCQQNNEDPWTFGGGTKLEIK : what is it?
output: 51.4%

input: Reported percent blocking for 1035211 (antibody, V domains shown) VH: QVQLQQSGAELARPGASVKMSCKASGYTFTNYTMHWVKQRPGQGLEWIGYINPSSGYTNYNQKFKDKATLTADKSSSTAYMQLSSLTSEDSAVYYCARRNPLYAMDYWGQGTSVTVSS VL: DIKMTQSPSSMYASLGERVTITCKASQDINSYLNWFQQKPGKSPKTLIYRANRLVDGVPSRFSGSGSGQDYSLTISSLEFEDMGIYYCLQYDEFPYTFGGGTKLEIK : what is it?
output: 78.6%

input: Reported percent blocking for 1035755 (antibody, V domains shown) VH: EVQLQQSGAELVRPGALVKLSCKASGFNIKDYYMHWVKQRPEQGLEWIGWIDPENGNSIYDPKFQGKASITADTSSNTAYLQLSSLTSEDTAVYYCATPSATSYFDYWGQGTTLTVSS VL: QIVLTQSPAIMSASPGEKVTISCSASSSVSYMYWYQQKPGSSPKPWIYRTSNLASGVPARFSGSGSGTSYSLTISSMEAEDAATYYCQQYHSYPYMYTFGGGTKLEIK : what is it?
output: 84.6%

input: Reported percent blocking for 1035240 (antibody, V domains shown) VH: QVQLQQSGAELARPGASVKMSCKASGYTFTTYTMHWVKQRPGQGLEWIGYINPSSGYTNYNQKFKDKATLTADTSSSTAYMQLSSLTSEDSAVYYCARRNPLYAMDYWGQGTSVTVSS VL: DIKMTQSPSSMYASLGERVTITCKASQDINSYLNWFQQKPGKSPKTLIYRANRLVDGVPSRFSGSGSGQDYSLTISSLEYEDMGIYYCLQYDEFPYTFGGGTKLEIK : what is it?
output: 96.1%
